# study target: ~100 representative kinases (Homo sapiens, UniProt O15264)
# Construct: Recombinant protein kinase domains with a concentration of 2 μM
# Sequence (O15264 1-365): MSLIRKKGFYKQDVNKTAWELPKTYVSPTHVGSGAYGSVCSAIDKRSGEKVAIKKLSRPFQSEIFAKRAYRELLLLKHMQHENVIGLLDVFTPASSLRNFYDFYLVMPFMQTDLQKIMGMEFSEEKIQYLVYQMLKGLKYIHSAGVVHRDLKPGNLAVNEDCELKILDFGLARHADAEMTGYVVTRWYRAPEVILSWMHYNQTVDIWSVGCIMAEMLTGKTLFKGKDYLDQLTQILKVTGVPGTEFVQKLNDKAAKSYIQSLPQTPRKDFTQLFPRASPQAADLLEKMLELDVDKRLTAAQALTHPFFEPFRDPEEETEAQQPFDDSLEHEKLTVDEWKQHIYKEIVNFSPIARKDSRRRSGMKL
# experimental details: DSF 100 kinase selectivity screen;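 note: compound tested at 20 µM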
# Assay type: binding
# setup conditions: protein MAPK13; average of three replicates
# Description: Recombinant protein kinase domains with a concentration of 2 μM were mixed with a 20 μM compound solution in dimethyl sulfoxide (DMSO), 20 mM Hepes (pH 7.5), and 500 mM NaCl. SYPRO Orange (5000×, Invitrogen) was added as a fluorescence probe (1μl/ml). Subsequently, temperature-dependent protein unfolding profiles were measured using the QuantStudio 5 realtime PCR machine (Thermo Fisher Scientific, Waltham, MA, USA). […] The temperature was raised with a step rate of 3°C/min. […]
The reader will find reported dTm values listed item by item below.
// units = K; emit number, no label

Some molecules with recorded dTm:
Q. Value lookup for dTm; key = "COc1cc(S(C)(=O)=O)ccc1Nc1nc(N(C)C)c2c(Cl)c[nH]c2n1"
A. 0.37

Q. Value lookup for dTm; key = "Cc1ccc(C(=O)Nc2ccc(CN3CCN(C)CC3)c(C(F)(F)F)c2)cc1C#Cc1c[nH]c2ncnc(N3CCOCC3)c12"
A. 4.74

Q. Value lookup for dTm; key = "CCSc1nc(NC)c2c(-c3cccc(NC(=O)Nc4cc(C(C)(C)C)nn4-c4ccc(C)cc4)c3)c[nH]c2n1"
A. 9.18

Q. Value lookup for dTm; key = "Cc1cc(NC(=O)C2(C(=O)Nc3cccc(-c4c[nH]c5ncnc(N6CCOCC6)c45)c3)CC2)ccc1F"
A. 13.05

New cases:
Q. Value lookup for dTm; key = "Cc1cc(F)ccc1NC(=O)C1(C(=O)Nc2cccc(-c3c[nH]c4ncnc(N5CCOCC5)c34)c2)CC1"
A. 6.95

The values you see were collected from paper PMC12136037.
